# System: IGROV-1
# measurement protocol: NCI tumour cell line growth inhibition, 48 h
The source made the active and inactive calls. Cut-off read from the data, not from the text of the source: active = GI50 up to about 1.1 µM and inactive = higher.
Allowed answers: 1 (active), 0 (inactive)

{"columns": ["molecule", "group"],
 "data": [
  ["Cc1ccc(NC(=O)/C(Cc2nc3ccc([N+](=O)[O-])cc3nc2O)=N\\NC(=O)C[n+]2ccccc2)c(C)c1", 0]
]}

[in] What is the recorded call for this molecule in the test? c1ccc(C2CC(c3ccc4ccccc4c3)=Nc3ccccc3S2)cc1 (stereo not drawn)
[out] 0

[in] What is the recorded call for this molecule in the test? C[C@@H]1C[C@@H]2OC(=O)[C@]3(C)[C@H]2[C@@H](OC3(C)O)[C@]2(C)C(=O)C=C[C@@H]12 (stereo partly drawn)
[out] 0

[in] What is the recorded call for this molecule in the test? C[C@@H]1C(O)CC[C@H](C)C12CC=CC2=O (stereo partly drawn)
[out] 0

[in] What is the recorded call for this molecule in the test? CN(C)CCNC(=O)c1cccc2nc3ccc4ccccc4c3nc12
[out] 1

[in] What is the recorded call for this molecule in the test? Cc1cn(C2CC(O)C(Cn3nncc3Cn3nc(Br)c(=O)[nH]c3=O)O2)c(=O)[nH]c1=O (stereo not drawn)
[out] 0

[in] What is the recorded call for this molecule in the test? COc1ccc(CCCNC(=O)Cc2cc(OC)c(OC)cc2CO)cc1OC
[out] 0

[in] What is the recorded call for this molecule in the test? CCOC(=O)CCN1C(=O)C(=O)N(c2ccc(OC)cc2)C1=S
[out] 0

[in] What is the recorded call for this molecule in the test? CCOC(=O)c1c(Br)c(-c2ccc(OC)cc2)c(Br)n1C
[out] 0

[in] What is the recorded call for this molecule in the test? CCCC(=O)c1ccc(=O)n(C)c1
[out] 0

[in] What is the recorded call for this molecule in the test? O=C1CC2CCCCC2=C1O (stereo not drawn)
[out] 0

[in] What is the recorded call for this molecule in the test? COC(=O)C(CCSC)NC(=O)CSc1nnc(COc2ccc(Cl)cc2)n1-c1ccccc1 (stereo not drawn)
[out] 0

[in] What is the recorded call for this molecule in the test? CSC1(SC)CCCCCCCCCCC1
[out] 0

* * *

# System: MOLT-4
# measurement protocol: NCI tumour cell line growth inhibition, 48 h
Activity calls are given as the source filed them. No stated cut-off is given here; in the data, active = GI50 up to about 1.1 µM and inactive = higher.
measured attribute: GI50

Past entries and their recorded results:
{"columns": ["compound", "GI50"],
 "data": [
  ["O=C(NCCCNCCNC(=O)c1cc(-c2ccccc2)nc2ccccc12)c1cc(-c2ccccc2)nc2ccccc12", "2.09 µM (inactive)"],
  ["CC1(C)C=C(/C=N/Nc2ccccc2)C(C#N)=C(O)C1(C#N)C#N", "57.7 µM (inactive)"],
  ["COc1ccc(N2C(=O)C3c4[nH]c5c(C)cccc5c4C4CCC(C(C)(C)C)CC4C3C2=O)cc1 (stereo not drawn)", "3.47 µM (inactive)"],
  ["CCOC(=O)CC/C(=N/Nc1ccc(Cl)cc1[N+](=O)[O-])C(=O)OCC", "> 100 µM (inactive)"],
  ["COc1ccc2c(c1)C1Oc3ccccc3CC1(O)CO2 (stereo not drawn)", "> 100 µM (inactive)"],
  ["COC(=O)CCC(=O)Nc1ccc(Cl)cc1C", "1.8 µM (inactive)"],
  ["Cc1cc2c(cc1C)[n+]([O-])c(C(=O)/C=C/c1ccccc1Cl)c(C)[n+]2[O-]", "39.5 µM (inactive)"],
  ["Cc1nn(C(=O)c2ccccc2O)c2c1C(c1ccccc1)SC(=N)N2 (stereo not drawn)", "2.75 µM (inactive)"],
  ["O=C(CCN1CCN(c2cccc(Cl)c2)CC1)N1CCc2c([nH]c3ccccc23)C1c1cccnc1 (stereo not drawn)", "2.95 µM (inactive)"],
  ["Cc1cc(=O)oc2c(CNC(CO)C(=O)O)c(O)ccc12 (stereo not drawn)", "> 100 µM (inactive)"]
]}

[in] Return reported GI50; argument: CCOC(=O)Cn1c(C(F)(F)F)nc2nc(Cl)c(Cl)nc21
[out] 26.6 µM (inactive)

[in] Return reported GI50; argument: COc1cc(OC)c2c(=O)cc(-c3ccccc3F)[nH]c2c1
[out] 66.2 µM (inactive)
